From: ChEMBL document CHEMBL4689842

- Test system: U2OS
- Assay text: Incucyte cell viability with U2OS; note: filed as whole numbers so only -1 and 0 and 1 occur
- Type: toxicity, cell-based
- Experimental context: human, 6 h, 10 µM, compound concentration 10 uM, replicate number 2, timepoint 6 hours
Endpoint label: Growth Rate

>>> value_measured("CCN(CC)CCCCNc1ncc2cc(-c3cc(OC)cc(OC)c3)c(NC(=O)NC(C)(C)C)nc2n1")
1
>>> value_measured("COc1cccc(OC)c1-c1cc(C(=O)NC2(C(=O)O)C3CC4CC(C3)CC2C4)nn1-c1ccc(C(=O)N(C)CCCN(C)C)cc1C(C)C (configuration not stated)")
0
>>> value_measured("CN1CCCC(n2nc(Cc3ccc(Cl)cc3)c3ccccc3c2=O)CC1.Cl (configuration not stated) [AZELASTINE HYDROCHLORIDE]")
0
>>> value_measured("Cn1cc(-c2[nH]c3cc(NC(=O)[C@H](N)C4CCCCC4)cc4c3c2C=NNC4=O)cn1")
1
>>> value_measured("C=C1/C(=C\\C=C2/CCC[C@]3(C)[C@@H]([C@H](C)/C=C/C=C/C(O)(CC)CC)CC[C@@H]23)C[C@@H](O)C[C@@H]1O")
0
>>> value_measured("C[C@@H](NCCCc1cccc(C(F)(F)F)c1)c1cccc2ccccc12.Cl [CINACALCET HYDROCHLORIDE]")
0
>>> value_measured("COc1cccc([C@@H](C)NCCCc2ccccc2Cl)c1.Cl [TECALCET HYDROCHLORIDE]")
0
>>> value_measured("O=C(NCCCC1CCCCC1)c1ccc(CNC(=O)c2cnn(-c3ccccc3)c2C(F)(F)F)cc1")
0
>>> value_measured("N#Cc1ccc(NC(=O)Nc2ccccc2Br)c2nn[nH]c12")
1
>>> value_measured("c1cn2cc(-c3ccc4cn[nH]c4c3)nc(Nc3ccc(N4CCOCC4)cc3)c2n1")
1
>>> value_measured("O=C(NCc1ncc(C(F)(F)F)cc1Cl)c1ccc2c(c1)C1(CCS(=O)(=O)CC1)[C@H](C1CC1)N2S(=O)(=O)c1ccc(F)cc1")
0
>>> value_measured("Cl.N#Cc1ccc2[nH]cc(CCCCN3CCN(c4ccc5oc(C(N)=O)cc5c4)CC3)c2c1 [VILAZODONE HYDROCHLORIDE]")
1
>>> value_measured("C[C@@]1(Cc2ccc(C#N)cc2)C(=O)N(c2cc(Cl)cc(Cl)c2)c2ncc(C(=O)NC3(c4nc(C5CCC5)no4)CC3)n21")
0
>>> value_measured("C=CC(=O)Nc1ccc2ncnc(Nc3ccc(OCc4cccc(F)c4)c(Cl)c3)c2c1.Cc1ccc(S(=O)(=O)O)cc1")
0
>>> value_measured("Cc1cccc([C@H](C)c2c[nH]cn2)c1C.Cl [DEXMEDETOMIDINE HYDROCHLORIDE]")
0
>>> value_measured("CC(=O)OCC(=O)[C@@]1(O)CC[C@H]2[C@@H]3CCC4=CC(=O)CC[C@]4(C)[C@@]3(F)[C@@H](O)C[C@@]21C [FLUDROCORTISONE ACETATE]")
0
>>> value_measured("Cc1c(C(=O)NC2CCCCC2)sc2nc3ccc(N)cc3n12.Cl")
0
>>> value_measured("Cl.Cl.c1ccc([C@@H]2C[C@H]2NC2CCNCC2)cc1")
1
>>> value_measured("Cc1nc(C2CCN(C(=O)c3ccc(OC(F)(F)F)cc3N)CC2)c2ncc(N3CCN(C)CC3)cc2n1")
1
>>> value_measured("CNCCC(Oc1ccc(C(F)(F)F)cc1)c1ccccc1.Cl (configuration not stated) [FLUOXETINE HYDROCHLORIDE]")
1
>>> value_measured("CN(C)[C@@H]1CCN(c2cc(-c3ccccc3)nc3ccnn23)C1 [(R)-ZINC-3573]")
0
>>> value_measured("CCC(=O)Nc1cccc(Oc2nc(Nc3ccc(N4CCN(C)CC4)cc3OC)ncc2Cl)c1")
1
>>> value_measured("Clc1cccc(-c2nnnn2Cc2cccnc2)c1Cl")
0
>>> value_measured("COc1ccc2cc(OCC3(C(=O)O)CN(C(=O)c4ccc(F)cc4)C3)ccc2c1")
0
>>> value_measured("CC[C@@H]1[C@H](F)C(=O)N[C@@H]1COc1nccc2cc(C(N)=O)c(OC)cc12")
1
>>> value_measured("N[C@H](C(=O)O)c1ccc(C(=O)O)c(C(=O)O)c1")
1
>>> value_measured("CC1(C)CCC(C)(C)c2cc(C3(c4ccc(C(=O)O)cc4)OCCO3)ccc21")
0
>>> value_measured("Cc1nc(-c2ccc(-c3ccc(C(=O)N4CCc5cc6c(cc54)C4(CCN(C)CC4)CO6)cc3)c(C)c2)no1")
1
>>> value_measured("C[S+]([O-])c1ccc(-c2nc(-c3ccncc3)c(-c3ccc(F)cc3)[nH]2)cc1 (configuration not stated)")
0
>>> value_measured("CCCc1nc2c(C)cc(-c3nc4ccccc4n3C)cc2n1Cc1ccc(-c2ccccc2C(=O)O)cc1")
1
>>> value_measured("COc1ccc(CNC(=O)c2cc(-c3cncc(Cl)c3)cnc2-c2ccccn2)nc1OC")
0
>>> value_measured("CC(=O)Nc1c(C(C)=O)c(=O)n(C)c2nc(-c3ccc(Cl)cc3Cl)c(-c3ccc(Cl)cc3)cc12")
1

----------
- System: U2OS
- Assay text: Multiplex assay against U2OS
- Format: toxicity, cell-based
- Experimental context: human, 48 h, 1 µM, compound concentration 1 uM, replicate 1
Outcome: t for Total Cell Count of at least 200; f for anything lower.

>>> answer_label("Cc1csc2c(N[C@@H](C)CN3CCN(S(=O)(=O)c4ccc(Cl)c(Cl)c4)CC3)ncnc12")
"t"
>>> answer_label("CN(C)C(=O)N[C@H]1CC[C@H](CCN2CCN(c3cccc(Cl)c3Cl)CC2)CC1.Cl [CARIPRAZINE HYDROCHLORIDE]")
"f"
>>> answer_label("Cl.N#Cc1ccc2[nH]cc(CCCCN3CCN(c4ccc5oc(C(N)=O)cc5c4)CC3)c2c1 [VILAZODONE HYDROCHLORIDE]")
"f"
>>> answer_label("CN1CCCC(n2nc(Cc3ccc(Cl)cc3)c3ccccc3c2=O)CC1.Cl (stereo unspecified) [AZELASTINE HYDROCHLORIDE]")
"f"
>>> answer_label("COc1ncc(-c2ccc3nccc(-c4ccnnc4)c3c2)cc1NS(=O)(=O)c1ccc(F)cc1F")
"f"
>>> answer_label("CC[C@H](C)C(=O)O[C@H]1C[C@@H](C)C=C2C=C[C@H](C)[C@H](CC[C@@H]3C[C@@H](O)CC(=O)O3)[C@H]21")
"f"
>>> answer_label("CN(C)C(=O)/C(C#N)=C/c1ccc(-c2nc3cnc4[nH]ccc4c3n2C2CCCCC2)o1")
"f"
>>> answer_label("Cc1[nH]c(/C=C2\\C(=O)Nc3ccc(S(=O)(=O)N(C)c4cccc(Cl)c4)cc32)c(C)c1C(=O)N1CCN(C)CC1")
"t"
>>> answer_label("COc1cc(-n2cnc3cc(-c4ccc(Cl)cc4)sc3c2=O)ccc1OCCN1CCCC1")
"f"
>>> answer_label("C[C@@H](NCCCc1cccc(C(F)(F)F)c1)c1cccc2ccccc12.Cl [CINACALCET HYDROCHLORIDE]")
"t"
>>> answer_label("Cc1cc(C)cc(-c2cnc3cc(Cl)c(-c4cccc(O)c4)cc3c2OCCCN)c1")
"f"
>>> answer_label("CNc1nc(NCc2ccc(NS(C)(=O)=O)cc2Cl)cc(-c2ccccn2)n1")
"f"
>>> answer_label("CN(C)CC#Cc1ccc(OCCCc2sc(N3CCc4cccc(C(=O)Nc5nc6ccccc6s5)c4C3)nc2C(=O)O)c(F)c1")
"t"
>>> answer_label("CN1CCC[C@@H]1CCO[C@](C)(c1ccccc1)c1ccc(Cl)cc1.O=C(O)/C=C/C(=O)O [CLEMASTINE FUMARATE]")
"f"
>>> answer_label("C=CC(=O)Nc1cccc(C(=O)Nc2ccc(Nc3cc(-c4[nH]c(SC)nc4C)ccn3)cc2)c1")
"t"

----------
Below, each entry is listed with its recorded Population Normal (%).
- Tested on: U2OS
- Assay text: Multiplex assay against U2OS
- Format: toxicity, cell-based
- Experimental context: human, 24 h, 10 µM, compound concentration 10 uM, replicate 1
Endpoint label: Population Normal (%)

>>> value_measured("COc1cc2nccc(Oc3ccc(NC(=O)Nc4cc(C)on4)c(Cl)c3)c2cc1OC.O")
91
>>> value_measured("CC[C@H](C)C(=O)O[C@H]1C[C@@H](C)C=C2C=C[C@H](C)[C@H](CC[C@@H]3C[C@@H](O)CC(=O)O3)[C@H]21")
93
>>> value_measured("C=CC(=O)Nc1cccc(C(=O)Nc2ccc(Nc3cc(-c4[nH]c(SC)nc4C)ccn3)cc2)c1")
94
>>> value_measured("COc1cccc([C@@H](C)NCCCc2ccccc2Cl)c1.Cl [TECALCET HYDROCHLORIDE]")
87

----------
- Tested on: HEK-293T
- Assay text: Multiplex assay against HEK293T;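 note: share of the cells with healthy nuclei that show this phenotype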
- Format: toxicity, cell-based
- Experimental context: human, 48 h, 10 µM, compound concentration 10 uM, replicate 2
Endpoint label: Population Tubulin-Different-Phenotype (%)

>>> value_measured("COc1cccc([C@@H](C)NCCCc2ccccc2Cl)c1.Cl [TECALCET HYDROCHLORIDE]")
96
>>> value_measured("CN(C)CC#Cc1ccc(OCCCc2sc(N3CCc4cccc(C(=O)Nc5nc6ccccc6s5)c4C3)nc2C(=O)O)c(F)c1")
48
>>> value_measured("C[C@@]1(C(=O)Nc2ccc(F)nc2)CCCN1c1nc(Nc2cc(C3CC3)n[nH]2)c2cccn2n1")
96
>>> value_measured("CNc1nc(NCc2ccc(NS(C)(=O)=O)cc2Cl)cc(-c2ccccn2)n1")
82
>>> value_measured("Cl.N#Cc1ccc2[nH]cc(CCCCN3CCN(c4ccc5oc(C(N)=O)cc5c4)CC3)c2c1 [VILAZODONE HYDROCHLORIDE]")
94
>>> value_measured("C=CC(=O)Nc1ccc2ncnc(Nc3ccc(OCc4cccc(F)c4)c(Cl)c3)c2c1.Cc1ccc(S(=O)(=O)O)cc1")
46
>>> value_measured("O=C1NCN(c2ccccc2)C12CCN(CCCOc1ccc(F)cc1)CC2 [SPIRAMIDE]")
44
>>> value_measured("COc1cc(-n2cnc3cc(-c4ccc(Cl)cc4)sc3c2=O)ccc1OCCN1CCCC1")
38
>>> value_measured("Nc1c(C(=O)NCc2ccc(C(=O)NCCCC3CCCCC3)cc2)cnn1-c1ccccc1")
95
>>> value_measured("C=CC(=O)Nc1cccc(C(=O)Nc2ccc(Nc3cc(-c4[nH]c(SC)nc4C)ccn3)cc2)c1")
64
>>> value_measured("CNCc1ccccc1-c1csc([C@H](C)Nc2nc(C)nc3cc(OC)c(OC)cc23)c1")
96
>>> value_measured("CN(C)C(=O)N[C@H]1CC[C@H](CCN2CCN(c3cccc(Cl)c3Cl)CC2)CC1.Cl [CARIPRAZINE HYDROCHLORIDE]")
92
>>> value_measured("Cc1csc2c(N[C@@H](C)CN3CCN(S(=O)(=O)c4ccc(Cl)c(Cl)c4)CC3)ncnc12")
67
>>> value_measured("CCOCCn1cc(C(=O)Nc2ccc(-n3nc(-c4cccnc4)cc3C(F)(F)F)cn2)ccc1=O")
79
>>> value_measured("CN1CCC[C@@H]1CCO[C@](C)(c1ccccc1)c1ccc(Cl)cc1.O=C(O)/C=C/C(=O)O [CLEMASTINE FUMARATE]")
75
>>> value_measured("Cc1c(-c2ccc(O)cc2)n(Cc2ccc(OCCN3CCCCCC3)cc2)c2ccc(O)cc12")
90
>>> value_measured("Cc1cc(C)cc(-c2cnc3cc(Cl)c(-c4cccc(O)c4)cc3c2OCCCN)c1")
83
